# EXPERIMENTAL_TARGET: GABAA1 (human α1β2γ2 GABAA receptor) (Homo sapiens, UniProt P14867+P18507)
# Construct: expressed in transfected cells; host or cells: Xenopus laevis oocytes injected with capped cRNA
# Sequence (P14867 28-456): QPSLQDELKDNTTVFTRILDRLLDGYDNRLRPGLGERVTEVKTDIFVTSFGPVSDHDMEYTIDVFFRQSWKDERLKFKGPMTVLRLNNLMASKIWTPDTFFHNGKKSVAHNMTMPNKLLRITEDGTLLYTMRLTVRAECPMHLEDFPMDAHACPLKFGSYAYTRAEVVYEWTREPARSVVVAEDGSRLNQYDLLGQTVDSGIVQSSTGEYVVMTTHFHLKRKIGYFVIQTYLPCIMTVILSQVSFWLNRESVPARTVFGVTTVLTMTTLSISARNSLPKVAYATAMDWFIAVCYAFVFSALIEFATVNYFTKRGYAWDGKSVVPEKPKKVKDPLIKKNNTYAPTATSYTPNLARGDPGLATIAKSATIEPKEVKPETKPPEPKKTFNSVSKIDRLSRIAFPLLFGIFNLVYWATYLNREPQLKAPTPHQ
# Sequence (P47870 25-512 partner limits assumed): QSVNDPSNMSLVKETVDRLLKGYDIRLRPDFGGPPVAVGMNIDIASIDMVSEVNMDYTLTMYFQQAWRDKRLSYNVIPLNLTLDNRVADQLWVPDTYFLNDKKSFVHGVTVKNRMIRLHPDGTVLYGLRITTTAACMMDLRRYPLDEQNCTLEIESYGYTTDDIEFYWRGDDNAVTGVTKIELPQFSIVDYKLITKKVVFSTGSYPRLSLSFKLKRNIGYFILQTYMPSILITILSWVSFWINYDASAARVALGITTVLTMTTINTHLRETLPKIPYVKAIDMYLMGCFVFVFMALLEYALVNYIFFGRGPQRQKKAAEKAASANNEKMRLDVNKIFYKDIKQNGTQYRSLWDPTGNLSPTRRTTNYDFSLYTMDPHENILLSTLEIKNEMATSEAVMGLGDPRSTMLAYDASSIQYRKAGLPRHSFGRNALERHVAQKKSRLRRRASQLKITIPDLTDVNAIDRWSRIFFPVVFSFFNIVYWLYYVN
# Sequence (P18507 40-475): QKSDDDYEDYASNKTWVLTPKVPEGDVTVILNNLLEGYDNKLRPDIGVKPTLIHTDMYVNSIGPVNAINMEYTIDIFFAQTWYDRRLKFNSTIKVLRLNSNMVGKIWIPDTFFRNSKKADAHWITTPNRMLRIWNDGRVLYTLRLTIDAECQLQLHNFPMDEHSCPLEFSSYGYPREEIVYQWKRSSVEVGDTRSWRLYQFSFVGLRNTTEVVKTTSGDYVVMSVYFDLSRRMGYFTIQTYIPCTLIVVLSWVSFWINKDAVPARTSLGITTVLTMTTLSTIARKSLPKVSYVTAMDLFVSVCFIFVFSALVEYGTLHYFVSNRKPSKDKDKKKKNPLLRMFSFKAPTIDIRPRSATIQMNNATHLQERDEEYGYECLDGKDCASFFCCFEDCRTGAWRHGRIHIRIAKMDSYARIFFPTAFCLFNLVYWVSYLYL
# EXPERIMENTAL_PROTOCOL: Two-electrode voltage-clamp in Xenopus oocytes, potentiation of GABA EC10 current, GABAA1
# Assay type: cell-based
# CONDITION_CONTEXT: percentage potentiation of GABA EC10 current divided by that of diazepam
METRIC: Relative Potentiation for GABAA1
Give the figure by itself; no unit, no explanation.

Here is how some compounds turned out for Relative Potentiation for GABAA1.
query_smiles=CCCNC(=O)c1nnc2c(-c3ccc(OC)c(OC)c3OC)cccc2c1N experimental_target="GABAA1 (human α1β2γ2 GABAA receptor) (Homo sapiens, UniProt P14867+P18507)" metric="Relative Potentiation for GABAA1" numeric_value=0.47
query_smiles=CCCNC(=O)c1nnc2c(-c3cnc(OC)nc3OC)c(Cl)ccc2c1N experimental_target="GABAA1 (human α1β2γ2 GABAA receptor) (Homo sapiens, UniProt P14867+P18507)" metric="Relative Potentiation for GABAA1" numeric_value=0.19
query_smiles=CCCNC(=O)c1nnc2c(-c3cccc(C)c3C)cccc2c1N experimental_target="GABAA1 (human α1β2γ2 GABAA receptor) (Homo sapiens, UniProt P14867+P18507)" metric="Relative Potentiation for GABAA1" numeric_value=0.0058

For reference, reported Relative Potentiation for GABAA1 for `CCCNC(=O)c1nnc2c(-c3cc(Cl)ccc3OC)cccc2c1N` stands at 0.38

Relative Potentiation for GABAA1 reading for `CCCNC(=O)c1nnc2c(-c3ccc(Cl)cc3)c(F)ccc2c1N` : 0.02

====

# EXPERIMENTAL_TARGET: GABAA2 (human α2β3γ2 GABAA receptor) (Homo sapiens, UniProt P18507+P47869)
# Construct: expressed in transfected cells; host or cells: Xenopus laevis oocytes injected with capped cRNA
# EXPERIMENTAL_PROTOCOL: Two-electrode voltage-clamp in Xenopus oocytes, potentiation of GABA EC10 current, GABAA2
# Format: cell-based
# CONDITION_CONTEXT: percentage potentiation of GABA EC10 current divided by that of diazepam
Classification field: label 1 = Relative Potentiation for GABAA2 at or over 0.1; label 0 = Relative Potentiation for GABAA2 under 0.1.

Use these answered entries as a reference point.
query_smiles=CCCNC(=O)c1nnc2c(-c3ccc(C)cc3)cccc2c1N label="label 1"
query_smiles=CNC(=O)c1nnc2c(-c3cc(C)ccc3OC)cccc2c1N label="label 1"
query_smiles=CCCNC(=O)c1nnc2c(-c3ccccc3)c(OC)ccc2c1N label="label 0"

Can `CCCNC(=O)c1nnc2c(-c3cc(F)cc(F)c3OC)c(F)ccc2c1N` be said to have Relative Potentiation for GABAA2 at or above 0.1?
label 1

Decide: is the reported value of Relative Potentiation for GABAA2 for `CCCNC(=O)c1nnc2c(-c3cccc(C)c3C)c(F)ccc2c1N` equal to or greater than 0.1?
label 1

// inclusive: Relative Potentiation for GABAA2 at least 0.1? input: `CCCNC(=O)c1nnc2c(-c3cc(F)ccc3OC)c(F)ccc2c1N`
label 1

Hi, just wondering whether `CCCNC(=O)c1nnc2c(-c3ccc(OC)cc3)cccc2c1N` shows Relative Potentiation for GABAA2 of 0.1 or higher.
label 0

Threshold query (Relative Potentiation for GABAA2 >= 0.1) on `CCCNC(=O)c1nnc2c(-c3cccc(OC)c3OC)cccc2c1N`
label 0

Given the entry `CCCNC(=O)c1nnc2c(-c3ccc(OC)c(F)c3)c(F)ccc2c1N` , answer whether its Relative Potentiation for GABAA2 meets or surpasses 0.1.
label 1

API: above_or_equal(metric=Relative Potentiation for GABAA2, cutoff=0.1) for item `CCCNC(=O)c1nnc2c(-c3cncc(OC)c3)cccc2c1N`
label 1

====

# EXPERIMENTAL_TARGET: GABAA2 (human α2β3γ2 GABAA receptor) (Homo sapiens, UniProt P18507+P47869)
# Construct: expressed in transfected cells; host or cells: Xenopus laevis oocytes injected with capped cRNA
# EXPERIMENTAL_PROTOCOL: Two-electrode voltage-clamp in Xenopus oocytes, potentiation of GABA EC10 current, GABAA2
# Format: cell-based
# CONDITION_CONTEXT: percentage potentiation of GABA EC10 current divided by that of diazepam
Cut-off 0.2 on Relative Potentiation for GABAA2: below means TRUE, at or above means FALSE.

// below: answered compounds
query_smiles=CCCNC(=O)c1nnc2c(-c3cccnc3F)cccc2c1N label=TRUE
query_smiles=CCCNC(=O)c1nnc2c(-c3ccc(OC)c(C)c3)cccc2c1N label=FALSE
query_smiles=CCCNC(=O)c1nnc2c(-c3cnccn3)cccc2c1N label=TRUE
query_smiles=CCNC(=O)c1nnc2c(-c3cnccc3OC)cccc2c1N label=FALSE
query_smiles=CCCNC(=O)c1nnc2c(-c3cnc4ccccc4c3)cccc2c1N label=TRUE

Is the reported Relative Potentiation for GABAA2 for `CCCNC(=O)c1nnc2c(-c3cc(F)c(OC)cc3F)cccc2c1N` strictly below 0.2?
FALSE

For `CCCNC(=O)c1nnc2c(-c3cnc(OC)c(F)c3)cccc2c1N` , is the recorded Relative Potentiation for GABAA2 below the cut-off of 0.2?
TRUE

Check if Relative Potentiation for GABAA2 falls below 0.2 for `CCCNC(=O)c1nnc2c(-c3cc(C)ccc3F)cccc2c1N` .
FALSE

Is the reported Relative Potentiation for GABAA2 for `CCCNC(=O)c1nnc2c(-c3cc(Cl)ccc3Cl)cccc2c1N` strictly below 0.2?
FALSE

Dear colleague, could you confirm whether Relative Potentiation for GABAA2 of `CCCNC(=O)c1nnc2c(-c3ccc(C)nc3)cccc2c1N` falls below 0.2? Thanks.
TRUE

Please let me know if `CCCNC(=O)c1nnc2c(-c3cc(C)ccc3C)c(Cl)ccc2c1N` shows Relative Potentiation for GABAA2 below 0.2.
FALSE

====

# EXPERIMENTAL_TARGET: GABAA2 receptors (α2, β3, γ2 receptor subunits) (Homo sapiens, UniProt P18507+P47869)
# Sequence (P47869 29-451): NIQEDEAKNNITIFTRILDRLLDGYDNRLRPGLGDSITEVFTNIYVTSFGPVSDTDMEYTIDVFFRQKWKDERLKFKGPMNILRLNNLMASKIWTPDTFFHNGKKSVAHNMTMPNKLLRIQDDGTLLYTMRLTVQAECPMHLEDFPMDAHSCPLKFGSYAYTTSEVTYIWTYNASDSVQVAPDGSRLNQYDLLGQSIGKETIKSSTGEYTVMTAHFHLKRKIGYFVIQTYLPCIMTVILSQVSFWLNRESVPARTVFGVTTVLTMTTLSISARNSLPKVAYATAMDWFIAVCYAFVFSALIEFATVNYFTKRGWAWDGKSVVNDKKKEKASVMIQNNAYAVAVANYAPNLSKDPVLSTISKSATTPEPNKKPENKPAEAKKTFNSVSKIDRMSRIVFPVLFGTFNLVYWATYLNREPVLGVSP
# Sequence (P28472 26-473 partner): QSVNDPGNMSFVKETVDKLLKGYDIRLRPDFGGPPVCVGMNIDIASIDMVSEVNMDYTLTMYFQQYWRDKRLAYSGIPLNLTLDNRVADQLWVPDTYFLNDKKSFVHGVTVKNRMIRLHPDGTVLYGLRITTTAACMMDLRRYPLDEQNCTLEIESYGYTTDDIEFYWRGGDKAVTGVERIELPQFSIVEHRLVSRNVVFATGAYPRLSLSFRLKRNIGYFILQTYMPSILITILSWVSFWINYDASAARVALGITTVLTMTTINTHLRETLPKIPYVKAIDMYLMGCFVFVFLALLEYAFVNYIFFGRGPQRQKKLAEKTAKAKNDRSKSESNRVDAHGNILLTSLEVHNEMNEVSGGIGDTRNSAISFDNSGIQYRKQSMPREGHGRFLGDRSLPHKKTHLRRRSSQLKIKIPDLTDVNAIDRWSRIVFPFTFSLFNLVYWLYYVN
# Sequence (P18507 40-475): as the sequence (P18507 40-475) above
# EXPERIMENTAL_PROTOCOL: biochemical
# CONDITION_CONTEXT: [3H]-Flunitrazepam ~2 nM, α2β3γ2 Sf9 membranes, 1 hr at 4° C.; read-out: GABAA2 Binding Ki
Listing: Ki of selected compounds
Value expressed in nM; do not type the unit.

query_smiles=CCCNC(=O)c1nnc2c(-c3cnc(OC)c(Cl)c3)cccc2c1N experimental_target="GABAA2 receptors (α2, β3, γ2 receptor subunits) (Homo sapiens, UniProt P18507+P47869)" unit_string=nM numeric_value=25.4

Case `CCCNC(=O)c1nnc2c(-c3cccc(C)c3C)c(F)ccc2c1N` , GABAA2 receptors (α2, β3, γ2 receptor subunits) (Homo sapiens, UniProt P18507+P47869), Ki recorded as 0.615

The compound `CCCNC(=O)c1nnc2c(-c3cccnc3)cccc2c1N` , tested on GABAA2 receptors (α2, β3, γ2 receptor subunits) (Homo sapiens, UniProt P18507+P47869), showed Ki of 2.6

====

# EXPERIMENTAL_TARGET: GABAA1 (human α1β2γ2 GABAA receptor) (Homo sapiens, UniProt P14867+P18507)
# Construct: expressed in transfected cells; host or cells: Xenopus laevis oocytes injected with capped cRNA
# EXPERIMENTAL_PROTOCOL: Two-electrode voltage-clamp in Xenopus oocytes, potentiation of GABA EC10 current, GABAA1
# Format: cell-based
# CONDITION_CONTEXT: percentage potentiation of GABA EC10 current divided by that of diazepam
Binary call on Relative Potentiation for GABAA1 with cut-off 0.2: strictly below means YES, and equality or higher means NO.

query_smiles=CCCNC(=O)c1nnc2c(-c3cc(F)cc(F)c3)cccc2c1N label=YES

Lab note: confirm whether the reported Relative Potentiation for GABAA1 for this compound is below 0.2, equality not counting. compound: `CCCNC(=O)c1nnc2c(-c3cccc(OC)c3F)cccc2c1N`
YES

Is Relative Potentiation for GABAA1 of `CCCNC(=O)c1nnc2c(-c3cc(OC)c(OC)c(OC)c3)cccc2c1N` strictly below 0.2?
NO

Is Relative Potentiation for GABAA1 strictly under 0.2 for the entry `CCCNC(=O)c1nnc2c(-c3cc(F)ccc3C)cccc2c1N` ?
YES

Quick check: does `CCCNC(=O)c1nnc2c(-c3ccccc3C(F)(F)F)cccc2c1N` have Relative Potentiation for GABAA1 under 0.2?
YES

Here's an entry: `CCCNC(=O)c1nnc2c(-c3cc(OC)ccc3F)cccc2c1N` . Is its Relative Potentiation for GABAA1 below 0.2?
NO

I'd appreciate it if you could check whether `CCCNC(=O)c1nnc2c(-c3ccc(OC)cc3OC)cccc2c1N` has Relative Potentiation for GABAA1 smaller than 0.2.
YES

Item `CCCNC(=O)c1nnc2c(-c3cccc(OC(F)(F)F)c3)cccc2c1N` : Relative Potentiation for GABAA1 beneath 0.2, strictly?
NO

I wonder whether `CCCNC(=O)c1nnc2c(-c3cc(C)c(OC)c(C)c3)cccc2c1N` has Relative Potentiation for GABAA1 below 0.2. Can you tell?
NO

Dear colleague, could you confirm whether Relative Potentiation for GABAA1 of `CCCNC(=O)c1nnc2c(-c3cnccc3C)cccc2c1N` falls below 0.2? Thanks.
YES

State whether 0.2 exceeds Relative Potentiation for GABAA1 recorded for `CCCNC(=O)c1nnc2c(-c3cc(F)ccc3C)c(F)ccc2c1N` .
YES

Here's an entry: `CCCCNC(=O)c1nnc2c(-c3cc(C)ccc3OC)cccc2c1N` . Is its Relative Potentiation for GABAA1 below 0.2?
NO

Problem: For the compound `CCCNC(=O)c1nnc2c(-c3cccc(Cl)c3Cl)cccc2c1N` , is Relative Potentiation for GABAA1 under 0.2?
YES

Say whether its Relative Potentiation for GABAA1 is strictly beneath 0.2. Entry: `COc1ccc(F)cc1-c1cccc2c(N)c(C(=O)NC3CC3)nnc12`
YES

Please let me know if `CCNC(=O)c1nnc2c(-c3ccc(OC)cc3OC)cccc2c1N` shows Relative Potentiation for GABAA1 below 0.2.
YES

Relative Potentiation for GABAA1 strictly < 0.2 for this compound? `CCCNC(=O)c1nnc2c(-c3ccccc3)c(OC)ccc2c1N`
YES

Relative Potentiation for GABAA1 under 0.2? Item: `CCCNC(=O)c1nnc2c(-c3ccc(OC)cc3F)cccc2c1N`
YES

Please state whether Relative Potentiation for GABAA1 is below 0.2 for `CCCNC(=O)c1nnc2c(-c3ccc(OC)c(F)c3)c(F)ccc2c1N`
YES

Determine if `CCCNC(=O)c1nnc2c(-c3cc(C(=O)N4CCC4)ccc3OC)cccc2c1N` shows Relative Potentiation for GABAA1 strictly lower than 0.2.
NO

API: query returns whether the compound falls strictly under 0.2 in Relative Potentiation for GABAA1. Query: `CCCNC(=O)c1nnc2c(-c3cnccc3OC)c(Cl)ccc2c1N`
YES

Record `CCCNC(=O)c1nnc2c(-c3ccccc3)c(Cl)ccc2c1N` : is its Relative Potentiation for GABAA1 strictly below 0.2?
NO

Does `CCCNC(=O)c1nnc2c(-c3cccc(C)c3C)c(F)ccc2c1N` have Relative Potentiation for GABAA1 strictly under 0.2?
YES
